Please provide measured koff for the entries that follow.
molecular target: T1, recombinant human PD-L1-His protein (Origincell Therapeutics Co., Ltd.) (human, UniProt Q9NZQ7 19-238, limits assumed); test: BLI (Octet RED384), antibody on AHC sensor, PD-L1-His in solution
T1 construct: not shown: His tag
T1 sequence (Q9NZQ7 19-238 limits assumed): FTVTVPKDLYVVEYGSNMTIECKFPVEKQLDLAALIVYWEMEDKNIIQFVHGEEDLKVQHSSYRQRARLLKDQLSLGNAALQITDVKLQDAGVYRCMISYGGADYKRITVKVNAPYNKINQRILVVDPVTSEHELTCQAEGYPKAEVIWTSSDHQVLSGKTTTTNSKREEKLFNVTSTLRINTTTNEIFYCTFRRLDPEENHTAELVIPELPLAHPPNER
Note: unit s⁻¹ is implicit; provide only the numeric part.

Look at this binder and give its reported koff. PD-L1 antibody YN-037 (antibody, human IgG1, lambda, V domains shown, full-length IgG1,lambda) VH: QVQLVQSGAEVKKPGSSVKVSCKASRGPFSTYAISWVRQAPGQGLEWMGRIIPILGIANYAQKFQGRVTITADKSTSTAYMELSSLRSEDTAVYYCARTMGEYSYGNYDYWGQGTLVTVSS VL: QSALTQPASVSGSPGQSITISCTGTSSSVGGYREVSWYQQHPGKAPKLMIYENSIRPSGVSHRFSGSKSGNTASLTISGLQAEDEADYYCQSYDSSLSGTVFGGGTKLTVLG 0.000136

Look at this binder and give its reported koff. PD-L1 antibody YN-036 (antibody, human IgG1, lambda, V domains shown, full-length IgG1,lambda) VH: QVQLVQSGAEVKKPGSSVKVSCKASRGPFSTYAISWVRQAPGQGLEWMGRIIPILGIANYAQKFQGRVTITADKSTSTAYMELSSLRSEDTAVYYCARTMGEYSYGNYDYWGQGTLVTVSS VL: QSALTQPASVSGSPGQSITISCTGTVSEVGGYNEVSWYQQHPGKAPKLMIYGNSNRPSGVSNRFSGSKSGNTASLTISGLQAEDEADYYCQSYDSSLSGTVFGGGTKLTVLG 0.000175

Look at this binder and give its reported koff. PD-L1 antibody YN-039 (antibody, human IgG1, lambda, V domains shown, full-length IgG1,lambda) VH: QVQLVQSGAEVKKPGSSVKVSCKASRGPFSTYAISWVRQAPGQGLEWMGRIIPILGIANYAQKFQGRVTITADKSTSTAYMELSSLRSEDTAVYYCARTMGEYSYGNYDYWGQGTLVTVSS VL: QSALTQPASVSGSPGQSITISCTGTVSDVGGYNEVSWYQQHPGKAPKLMIYENSIRPSGVSHRFSGSKSGNTASLTISGLQAEDEADYYCQSYDSSLSGTVFGGGTKLTVLG 0.000173

Data credit: patent US20210261677A1
